// data source = patent US20210318322A1

The following binders are shown together with reported EC50 proliferation, MLR values.
Molecular target: T1, human VISTA expressed on cells (human, UniProt Q9H7M9 33-295)
T1 sequence: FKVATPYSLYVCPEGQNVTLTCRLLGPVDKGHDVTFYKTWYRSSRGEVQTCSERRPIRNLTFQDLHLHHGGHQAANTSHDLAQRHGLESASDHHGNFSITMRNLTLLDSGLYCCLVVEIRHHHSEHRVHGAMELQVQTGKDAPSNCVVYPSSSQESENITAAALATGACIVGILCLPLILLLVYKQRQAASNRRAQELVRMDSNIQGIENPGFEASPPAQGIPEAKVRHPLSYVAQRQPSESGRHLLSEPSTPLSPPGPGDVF
Test: cell-based or functional assay

>  <BINDER>
VSTB95 (antibody, human IgG1, kappa, V domains shown, also called S16; INX Code 16) VH: EVQLVESGGGLVQPGGSLRLSCAASGFTFRNYGMSWVRQAPGKGLEWVASIISGGSYTYYPDSVKGRFTISRDNAKNSLYLQMNSLRAEDTAVYYCARIYDHDGDYYAMDYWGQGTTVTVSS VL: DIVMTQSPLSLPVTPGEPASISCRSSQSIVHSNGNTYLEWYLQKPGQSPQLLIYKVSNRFSGVPDRFSGSGSGTDFTLKISRVEAEDVGVYYCFQGSHVPWTFGQGTKLEIKR

>  <EC50 proliferation, MLR>
0.29 µg/mL

$$$$
>  <BINDER>
VSTB50 (antibody, human IgG1, kappa, V domains shown, also called S41; INX Code 41) VH: QVQLVQSGSELKKPGASVKVSCKASGYTFTNYGLNWVRQAPGQGLEWMGWINPYTGEPTYADDFKGRFVFSLDTSVSTAYLQICSLKAEDTAVYYCAREGYGNYIFPYWGQGTLVTVSS VL: DIVMTQTPLSLSVTPGQPASISCRASESVDTYANSLMHWYLQKPGQPPQLLIYRASNLESGVPDRFSGSGSGTDFTLKISRVEAEDVGVYYCQQTNEDPRTFGQGTKLEIKR

>  <EC50 proliferation, MLR>
0.77 µg/mL

$$$$
>  <BINDER>
VSTB53 (antibody, human IgG1, kappa, V domains shown, also called S43; INX Code 43) VH: QVQLVQSGAEVKKPGASVKVSCKASGYTFTHYTIHWVRQAPGQGLEWMGYIIPSSGYSEYNQKFKDRVTMTRDTSTSTVYMELSSLRSEDTAVYYCARGAYDDYYDYYAMDYWGQGTLVTVSS VL: DIVMTQSPLSLPVTPGEPASISCRSSQTIVHSNGNTYLEWYLQKPGQSPQLLIYKVSNRFSGVPDRFSGSGSGTDFTLKISRVEAEDVGVYYCFQASHVPWTFGQGTKLEIKR

>  <EC50 proliferation, MLR>
0.47 µg/mL

$$$$
>  <BINDER>
VSTB60 (antibody, human IgG1, kappa, V domains shown, also called S47; INX Code 47) VH: QVQLVQSGSELKKPGASVKVSCKASGYTFTNYGMTWVRQAPGQGLEWMGWINTYTGESTYADDFKGRFVFSLDTSVSTAYLQICSLKAEDTAVYYCARDYYGIYVSAYWGQGTLVTVSS VL: DIVMTQTPLSLSVTPGQPASISCRASESVDNYANSFMHWYLQKPGQSPQLLIYRASNLESGVPDRFSGSGSGTDFTLKISRVEAEDVGVYYCQQSHEDPYTFGQGTKLEIKR

>  <EC50 proliferation, MLR>
1.04 µg/mL

$$$$
